- TEST TARGET: Trace amine-associated receptor 1 (Homo sapiens) (UniProt Q96RJ0)
- Sequence (Q96RJ0 whole entry, looked up): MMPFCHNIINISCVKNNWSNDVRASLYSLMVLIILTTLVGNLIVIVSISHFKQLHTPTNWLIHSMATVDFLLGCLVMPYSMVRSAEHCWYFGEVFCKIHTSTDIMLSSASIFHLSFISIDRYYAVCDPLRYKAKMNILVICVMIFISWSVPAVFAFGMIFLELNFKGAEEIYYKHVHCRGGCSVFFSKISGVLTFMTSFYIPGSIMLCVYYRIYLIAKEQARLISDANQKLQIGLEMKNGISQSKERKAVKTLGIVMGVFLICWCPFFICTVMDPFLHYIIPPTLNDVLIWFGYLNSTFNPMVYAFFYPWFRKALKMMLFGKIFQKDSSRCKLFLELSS
- TEST DETAILS: activators of TAAR1 calcium signal, triplicate retest – Fluo-8 calcium fluorescence, CHO RD-HGA16 cells, confirmation (AID 651783);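 also: promiscuous G-alpha-16 overexpression reroutes TAAR1 signalling from cAMP to calcium; peak fluorescence divided by basal pre-compound fluorescence per well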
- EXPERIMENTAL CONTEXT: CHO RD-HGA16 TAAR1, Fluo-8 calcium fluorescence; at 3 µM; scaled: DMSO 0%, maximal phenethylamine 100%
The whole screen tested about 2,400 compounds, of which about 2,000 (83%) were called active.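 The calls were made as follows: active = activation above a cutoff set at the run's mean compound activation plus 3 SD (cut at about 39% in these data); inactive = the rest.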 So high a share suggests a set chosen from earlier hits. Only a sample is shown.
Outcomes: active, inactive

>>> df
                                    compound       cat
 0  COc1ccc(OC)c(C(c2nnnn2C(C)(C)C)N2CCc3ccccc3C2)c1 (stereo unspecified)    active
 1        CSc1nc(N)c(C#N)c(-c2ccccc2Cl)c1C#N    active
 2    COc1ccc(C(=O)NNC(=S)NC(=O)c2ccccc2)cc1    active
 3  COc1ccc(Cl)cc1C(=O)NNC(=S)NC(=O)/C=C/c1ccco1    active
 4  O=C(Nc1cccc(NC(=O)c2ccc(Br)cc2)c1)c1ccccc1  inactive
 5  COc1ccc(C(=O)NC(=S)NNC(=O)CCc2ccccc2)cc1    active
 6        Cc1ccccc1NC(=S)NC(=O)Cc1ccc(Cl)cc1    active
 7  c1ccc2c(c1)OCC(CNc1ncnc3nc[nH]c13)O2 (stereo unspecified)    active
 8    S=C(Nc1ccc(Br)cc1)NC1CCN(Cc2ccccc2)CC1    active
 9  COc1ccc(NC(=O)C(=O)NCC(c2ccco2)N2CCc3ccccc3C2)cc1 (stereo unspecified)    active
10              CCN(CC)c1ccc2oc(=O)c(C)nc2c1  inactive
